The measured values listed here are drawn from ChEMBL document CHEMBL4038335.

# PROTOCOL DESCRIPTION: Protein binding in dog plasma at 10 uM after 6 hrs by equilibrium dialysis
# Assay type: ADME, cell-free, Canis lupus familiaris
# TEST CONTEXT: read-out: PPB (converted)
QUANTITY NAME: fraction unbound at 6 h, 10 µM

Req: # fraction unbound at 6 h, 10 µM lookup, item C[C@@]1(O)CC[C@H]2[C@H](CC[C@@H]3[C@@H]2CC[C@]2(C)[C@@H](C(=O)Cn4cc(C#N)cn4)CC[C@@H]32)C1 [ZURANOLONE]
Resp: 0.016

----------
# TARGET: GABA-A receptor; alpha-1/beta-2/gamma-2 (Homo sapiens) (UniProt P14867+P47870+P18507)
# PROTOCOL DESCRIPTION: Positive allosteric modulation of GABAA receptor alpha1beta2gamma2 (unknown origin) expressed in mouse LTK cells assessed as potentiation of GABA-mediated increase in channel current under holding potential at -80 mV at 0.01 to 10 uM preincubated for 30 secs followed by GABA stimulation for 2 secs by automated patch clamp assay relative to GABA
# Type: cell-based
The compounds listed here are annotated with their Emax.
Answer in %, number only, no unit symbol.

Reference set, count: 4
>>> value("CC(=O)[C@H]1CC[C@H]2[C@@H]3CC[C@H]4C[C@H](O)CC[C@]4(C)[C@H]3CC[C@]12C")
510
>>> value("C[C@@]1(O)CC[C@H]2[C@H](CC[C@@H]3[C@@H]2CC[C@]2(C)[C@@H](C(=O)Cn4cc([N+](=O)[O-])cn4)CC[C@@H]32)C1")
440
>>> value("C[C@@]1(O)CC[C@H]2[C@H](CC[C@@H]3[C@@H]2CC[C@]2(C)[C@@H](C(=O)Cn4cc(C#N)cn4)CC[C@@H]32)C1")
473
>>> value("Cc1cnn(CC(=O)[C@H]2CC[C@H]3[C@@H]4CC[C@@H]5C[C@](C)(O)CC[C@@H]5[C@H]4CC[C@]23C)n1")
532

Field: next compound
Req: # Emax lookup, item `C[C@@]1(O)CC[C@H]2[C@H](CC[C@@H]3[C@@H]2CC[C@]2(C)[C@@H](C(=O)Cn4cccn4)CC[C@@H]32)C1`
Resp: 474

----------
# PROTOCOL DESCRIPTION: Clearance in human hepatic microsomes at 10 uM preincubated for 5 mins followed by NADPH addition measured over 60 mins by HPLC-MS/MS analysis
# Type: ADME, Microsome
# TEST CONTEXT: liver microsomes
QUANTITY NAME: CLhep predicted at 10 µM (mL/min/kg)
Answer in mL/min/kg, number only, no unit symbol.

Reference set, count: 2
>>> value("C[C@@]1(O)CC[C@H]2[C@H](CC[C@@H]3[C@@H]2CC[C@]2(C)[C@@H](C(=O)Cn4cc(C#N)cn4)CC[C@@H]32)C1")
3.33
>>> value("C[C@@]1(O)CC[C@H]2[C@H](CC[C@@H]3[C@@H]2CC[C@]2(C)[C@@H](C(=O)Cn4nccn4)CC[C@@H]32)C1")
3.33

Req: # CLhep predicted at 10 µM lookup, item `C[C@@]1(O)CC[C@H]2[C@H](CC[C@@H]3[C@@H]2CC[C@]2(C)[C@@H](C(=O)Cn4ccc(C#N)n4)CC[C@@H]32)C1`
Resp: 5

----------
# TARGET: Kv channel-interacting protein 2/Potassium voltage-gated channel subfamily D member 3 (Homo sapiens, UniProt Q9NS61+Q9UK17)
# Sequence (Q9UK17 whole entry): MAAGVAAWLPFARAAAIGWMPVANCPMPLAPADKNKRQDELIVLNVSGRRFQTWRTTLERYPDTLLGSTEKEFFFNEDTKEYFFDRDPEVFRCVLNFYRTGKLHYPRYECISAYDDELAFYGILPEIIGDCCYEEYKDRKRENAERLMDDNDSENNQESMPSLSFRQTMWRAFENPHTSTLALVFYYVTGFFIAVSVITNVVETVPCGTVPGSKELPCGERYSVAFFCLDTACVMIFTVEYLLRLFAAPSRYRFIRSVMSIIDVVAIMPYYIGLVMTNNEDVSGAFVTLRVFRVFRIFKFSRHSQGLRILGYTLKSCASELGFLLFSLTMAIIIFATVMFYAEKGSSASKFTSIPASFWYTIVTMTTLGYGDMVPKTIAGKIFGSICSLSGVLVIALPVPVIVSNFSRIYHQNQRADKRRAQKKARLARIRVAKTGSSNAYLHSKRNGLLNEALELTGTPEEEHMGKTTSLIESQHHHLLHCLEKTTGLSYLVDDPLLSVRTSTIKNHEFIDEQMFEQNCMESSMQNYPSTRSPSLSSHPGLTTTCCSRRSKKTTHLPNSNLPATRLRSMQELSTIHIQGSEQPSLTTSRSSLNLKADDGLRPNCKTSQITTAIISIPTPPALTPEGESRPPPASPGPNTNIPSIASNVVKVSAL
# Sequence (Q9NS61 whole entry): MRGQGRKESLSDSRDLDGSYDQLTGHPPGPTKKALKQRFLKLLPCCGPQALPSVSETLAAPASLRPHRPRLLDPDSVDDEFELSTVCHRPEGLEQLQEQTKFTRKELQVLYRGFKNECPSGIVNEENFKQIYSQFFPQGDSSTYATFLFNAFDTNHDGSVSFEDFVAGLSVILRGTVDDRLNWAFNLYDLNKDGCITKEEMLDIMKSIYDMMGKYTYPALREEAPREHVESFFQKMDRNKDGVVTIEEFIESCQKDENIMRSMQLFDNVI
# PROTOCOL DESCRIPTION: Inhibition of Kv4.3(unknown origin)/KChIP2.2 (unknown origin) by patch clamp assay
pIC50: −log10 of the molar value.
QUANTITY NAME: pIC50

Req: # pIC50 lookup, item `C[C@@]1(O)CC[C@H]2[C@H](CC[C@@H]3[C@@H]2CC[C@]2(C)[C@@H](C(=O)Cn4cc(C#N)cn4)CC[C@@H]32)C1`
Resp: < 4.52

----------
# PROTOCOL DESCRIPTION: Ratio of drug level in Sprague-Dawley rat brain to plasma at 5 mg/kg, iv measured at 30 mins post dose by LC/MS-MS analysis
# Type: ADME, organism-based
# TEST CONTEXT: read-out: BPR
QUANTITY NAME: Kp at 0.5 h

Reference set, count: 5
>>> value("C[C@@]1(O)CC[C@H]2[C@H](CC[C@@H]3[C@@H]2CC[C@]2(C)[C@@H](C(=O)Cn4cccn4)CC[C@@H]32)C1")
1.1
>>> value("C[C@@]1(O)CC[C@H]2[C@H](CC[C@@H]3[C@@H]2CC[C@]2(C)[C@@H](C(=O)Cn4nccn4)CC[C@@H]32)C1")
1.8
>>> value("Cc1cnn(CC(=O)[C@H]2CC[C@H]3[C@@H]4CC[C@@H]5C[C@](C)(O)CC[C@@H]5[C@H]4CC[C@]23C)c1")
2
>>> value("C[C@@]1(O)CC[C@H]2[C@H](CC[C@@H]3[C@@H]2CC[C@]2(C)[C@@H](C(=O)Cn4cc(C#N)cn4)CC[C@@H]32)C1")
4.2
>>> value("C[C@@]1(O)CC[C@H]2[C@H](CC[C@@H]3[C@@H]2CC[C@]2(C)[C@@H](C(=O)Cn4ccc(C#N)n4)CC[C@@H]32)C1")
1.9

Req: # Kp at 0.5 h lookup, item `CC(=O)[C@H]1CC[C@H]2[C@@H]3CC[C@H]4C[C@H](O)CC[C@]4(C)[C@H]3CC[C@]12C`
Resp: 1.8

----------
The molecules listed here are annotated with their pEC50.
# TARGET: GABA-A receptor; alpha-1/beta-2/gamma-2 (Homo sapiens, UniProt P14867+P18507+P47870)
# Sequence (P14867 whole entry): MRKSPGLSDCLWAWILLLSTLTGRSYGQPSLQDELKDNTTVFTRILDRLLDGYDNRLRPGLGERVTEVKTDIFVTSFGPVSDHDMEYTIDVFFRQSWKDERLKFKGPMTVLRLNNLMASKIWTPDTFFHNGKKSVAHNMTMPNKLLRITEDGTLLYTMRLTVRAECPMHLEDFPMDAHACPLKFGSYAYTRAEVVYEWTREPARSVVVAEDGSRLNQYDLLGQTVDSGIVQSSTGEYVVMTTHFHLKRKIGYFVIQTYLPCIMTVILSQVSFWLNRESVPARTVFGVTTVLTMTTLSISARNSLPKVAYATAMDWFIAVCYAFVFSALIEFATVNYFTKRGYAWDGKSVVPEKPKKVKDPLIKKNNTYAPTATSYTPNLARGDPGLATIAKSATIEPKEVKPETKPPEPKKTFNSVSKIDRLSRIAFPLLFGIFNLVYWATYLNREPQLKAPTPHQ
# Sequence (P47870 whole entry): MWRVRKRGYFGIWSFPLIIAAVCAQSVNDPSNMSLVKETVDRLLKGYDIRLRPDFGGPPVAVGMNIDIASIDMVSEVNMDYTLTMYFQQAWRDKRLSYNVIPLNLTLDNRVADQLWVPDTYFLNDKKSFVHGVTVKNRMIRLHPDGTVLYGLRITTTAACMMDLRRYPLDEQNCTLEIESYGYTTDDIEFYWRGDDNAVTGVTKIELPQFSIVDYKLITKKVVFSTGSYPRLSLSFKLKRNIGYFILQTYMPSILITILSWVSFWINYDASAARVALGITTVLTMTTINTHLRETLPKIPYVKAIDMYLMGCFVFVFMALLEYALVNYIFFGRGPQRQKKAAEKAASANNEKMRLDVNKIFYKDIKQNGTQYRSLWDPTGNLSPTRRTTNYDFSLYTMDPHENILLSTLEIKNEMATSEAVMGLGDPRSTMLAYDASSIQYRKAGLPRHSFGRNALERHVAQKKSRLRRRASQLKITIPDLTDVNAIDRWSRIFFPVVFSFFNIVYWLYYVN
# Sequence (P18507 whole entry): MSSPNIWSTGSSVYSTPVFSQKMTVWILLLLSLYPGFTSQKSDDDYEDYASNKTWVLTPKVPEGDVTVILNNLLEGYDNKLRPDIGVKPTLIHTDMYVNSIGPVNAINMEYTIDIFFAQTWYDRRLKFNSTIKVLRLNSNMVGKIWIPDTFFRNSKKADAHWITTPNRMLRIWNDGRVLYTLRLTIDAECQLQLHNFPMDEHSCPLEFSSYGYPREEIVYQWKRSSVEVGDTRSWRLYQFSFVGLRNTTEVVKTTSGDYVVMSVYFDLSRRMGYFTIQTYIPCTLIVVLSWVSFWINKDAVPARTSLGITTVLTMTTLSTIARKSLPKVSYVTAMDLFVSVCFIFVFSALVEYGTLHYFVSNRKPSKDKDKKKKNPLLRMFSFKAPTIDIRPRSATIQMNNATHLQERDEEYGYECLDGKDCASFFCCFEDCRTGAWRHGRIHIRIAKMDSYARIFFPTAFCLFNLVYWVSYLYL
# PROTOCOL DESCRIPTION: Positive allosteric modulation of GABAA receptor alpha1beta2gamma2 (unknown origin) expressed in mouse LTK cells assessed as potentiation of GABA-mediated increase in channel current under holding potential at -80 mV preincubated for 30 secs followed by GABA stimulation for 2 secs by automated patch clamp assay
pEC50: −log10 of the molar value.

Reference set, count: 4
>>> value("C[C@@]1(O)CC[C@H]2[C@H](CC[C@@H]3[C@@H]2CC[C@]2(C)[C@@H](C(=O)Cn4ncc(C#N)n4)CC[C@@H]32)C1")
"< 5.52"
>>> value("Cc1ccnn1CC(=O)[C@H]1CC[C@H]2[C@@H]3CC[C@@H]4C[C@](C)(O)CC[C@@H]4[C@H]3CC[C@]12C")
"< 5.00"
>>> value("CC[C@@]1(O)CC[C@H]2[C@H](CC[C@@H]3[C@@H]2CC[C@]2(C)[C@@H](C(=O)Cn4cc(C#N)cn4)CC[C@@H]32)C1")
"< 5.52"
>>> value("Cc1cn(CC(=O)[C@H]2CC[C@H]3[C@@H]4CC[C@@H]5C[C@](C)(O)CC[C@@H]5[C@H]4CC[C@]23C)nn1")
"< 5.52"

Req: # pEC50 lookup, item `COC[C@@]1(O)CC[C@H]2[C@H](CC[C@@H]3[C@@H]2CC[C@]2(C)[C@@H](C(=O)Cn4cc(C#N)cn4)CC[C@@H]32)C1`
Resp: < 5.52

Req: # pEC50 lookup, item `C[C@@]1(O)CC[C@H]2[C@H](CC[C@@H]3[C@@H]2CC[C@]2(C)[C@@H](C(=O)Cn4cc(Cl)cn4)CC[C@@H]32)C1`
Resp: 5.83

Req: # pEC50 lookup, item `Cc1ccn(CC(=O)[C@H]2CC[C@H]3[C@@H]4CC[C@@H]5C[C@](C)(O)CC[C@@H]5[C@H]4CC[C@]23C)n1`
Resp: < 5.44

Req: # pEC50 lookup, item `C[C@@]1(O)CC[C@H]2[C@H](CC[C@@H]3[C@@H]2CC[C@]2(C)[C@@H](C(=O)Cn4cc(C(N)=O)cn4)CC[C@@H]32)C1`
Resp: < 5.52

Req: # pEC50 lookup, item `Cc1cnn(CC(=O)[C@H]2CC[C@H]3[C@@H]4CC[C@@H]5C[C@](C)(O)CC[C@@H]5[C@H]4CC[C@]23C)n1`
Resp: 5.79

Req: # pEC50 lookup, item `C[C@@]1(O)CC[C@H]2[C@H](CC[C@@H]3[C@@H]2CC[C@]2(C)[C@@H](C(=O)Cn4cccn4)CC[C@@H]32)C1`
Resp: 6.01

Req: # pEC50 lookup, item `C[C@@]1(O)CC[C@H]2[C@H](CC[C@@H]3[C@@H]2CC[C@]2(C)[C@@H](C(=O)Cn4ccc(C#N)n4)CC[C@@H]32)C1`
Resp: 6.65
